The origin of these recorded values is patent US10577363B2.

Here, each record is paired with measured pIC50 data.
- assayTarget: SMYD3 (Homo sapiens (Human))
- Sequence (Q9H7B4 whole entry): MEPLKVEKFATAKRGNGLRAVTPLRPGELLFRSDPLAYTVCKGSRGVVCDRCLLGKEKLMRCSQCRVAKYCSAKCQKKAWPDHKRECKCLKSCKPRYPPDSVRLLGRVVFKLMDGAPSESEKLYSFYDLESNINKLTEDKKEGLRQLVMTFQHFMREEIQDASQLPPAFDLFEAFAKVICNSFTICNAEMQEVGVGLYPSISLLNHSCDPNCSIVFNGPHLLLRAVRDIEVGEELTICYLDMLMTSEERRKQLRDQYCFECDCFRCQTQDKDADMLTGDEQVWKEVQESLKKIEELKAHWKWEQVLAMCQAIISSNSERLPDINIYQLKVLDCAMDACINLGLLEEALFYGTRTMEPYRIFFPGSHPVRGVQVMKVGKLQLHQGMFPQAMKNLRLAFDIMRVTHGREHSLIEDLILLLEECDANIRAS
- assayMethodText: SMYD3 cell assay (Trimethyl-MEKK2 In-Cell Western in 293T/17 cells)
- Type: cell-based
- measurementParameters: average of n = 1 to n = 50; read-out: SMYD3 Cell IC50
Bear in mind: pIC50 is minus log10 of a mol/L concentration; give just that figure.

Please review the following examples before continuing.
C[C@@H]1CNCCN1S(=O)(=O)N1CC[C@H](NC(=O)c2cc(C3CC3)on2)C[C@@H]1C ... 6.10
CC1CN(S(=O)(=O)N2[C@@H]3CC[C@H]2C[C@@H](NC(=O)c2cc(C4CC4)on2)C3)CCN1C (stereo partly drawn) ... 6.38
CN(C1CCN(Cc2ccccc2)CC1)S(=O)(=O)N1[C@@H]2CC[C@H]1C[C@@H](NC(=O)c1cc(C3CC3)on1)C2 ... 6.24
CC(C)[C@@H]1CN(S(=O)(=O)N2CC[C@H](NC(=O)c3cc(C4CC4)on3)C[C@@H]2C)CCN1C ... 5.86
C[C@@H]1CN(S(=O)(=O)CCCNCc2ccccc2)[C@H](C)C[C@@H]1NC(=O)c1cc(C2CC2)on1 ... 6.03

**Q:** Give pIC50 for C[C@H]1C[C@@H](NC(=O)c2cc(C3CC3)on2)CCN1S(=O)(=O)c1cccc(N)n1
**A:** 5.78
